biological target: HIV-1 MA (Human immunodeficiency virus type 1 group M subtype B); construct: His6 (N, cleaved yes); SUMO (N, cleaved yes); made in house; host or cells: Escherichia coli BL21 (DE3) Codon+-RIL; test: Surface plasmon resonance direct binding to immobilized HIV-1 MA; details: CM7 sensor chip, 10 μM (FIG. 14)
Recorded Endpoint: direct interaction with sensor chip-immobilized HIV-1 MA

Compound | Measured
Cc1ccc(NC(=O)CN2CCN(Cc3nc(-c4ccc(F)cc4)no3)CC2)cc1 [CMPD-7] | directly interacted
CCOc1ccc(NC(=O)Cc2cn3ccsc3n2)cc1S(=O)(=O)N1CCCCC1 [CMPD-18] | directly interacted
O=C(CNC(=O)COc1ccccc1)NCc1ccc(C(=O)N2CCCCC2)cc1 [CMPD-14] | directly interacted

The reported measurements were obtained from patent US20130109698A1.
